Where do the numbers come from? From patent US20260053904A1.

STUDY TARGET: T1, recombinant human EpCAM extracellular domain (human, UniProt P16422 24-265)
T1 construct: extracellular domain; Plate-coated antigen of the ELISAs; also called human EpCAM ECD; recombinant EpCAM antigen
T1 sequence (looked up): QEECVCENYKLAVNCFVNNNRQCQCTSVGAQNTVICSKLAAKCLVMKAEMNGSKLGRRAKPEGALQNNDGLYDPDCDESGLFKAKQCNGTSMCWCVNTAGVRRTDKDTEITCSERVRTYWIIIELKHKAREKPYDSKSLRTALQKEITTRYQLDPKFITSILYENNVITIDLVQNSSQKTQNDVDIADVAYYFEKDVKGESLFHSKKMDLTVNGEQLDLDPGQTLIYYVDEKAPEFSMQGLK
EXPERIMENT: ELISA of MMAE conjugates, human EpCAM, pH 6.0
Parameter: EC50. Scope: all listed entries.

BINDER: BA-105-01-01 7376-vcMMAE (antibody, V domains shown, antibody conjugated to vcMMAE; chain and residues of attachment not stated) VH: QVQLQQSGAELAKPGASVKVSCKASGYTFTSYWMHWVKQRPGQGLEWIGYIRPSTGYTEYNQKFKDKATLTADKSSSTAYMQLSSLTFEDSAVYYCGRGDNWVGFANWGQGTLVTVSA VL: QIVLTQSPAIMSASLGEEIALTCSASSSISYMHWYQQKSGTSPKLLIYSTSNLASGVPSRFSGSGSGTFYSLTISSVEAEDAADYFCHQWSTYHTFGSGTKLEIK
EC50: 0.024 mg/L
--
BINDER: BA-105.4-02-01 8318-vcMMAE (antibody, V domains shown, antibody conjugated to vcMMAE; chain and residues of attachment not stated) VH: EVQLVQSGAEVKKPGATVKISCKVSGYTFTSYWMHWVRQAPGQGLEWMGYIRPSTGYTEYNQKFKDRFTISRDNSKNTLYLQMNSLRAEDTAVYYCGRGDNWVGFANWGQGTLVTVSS VL: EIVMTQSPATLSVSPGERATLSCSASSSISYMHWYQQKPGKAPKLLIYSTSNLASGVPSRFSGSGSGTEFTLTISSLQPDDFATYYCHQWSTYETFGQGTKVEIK
EC50: 0.0324 mg/L
--
BINDER: BA-105.4-01-02 8316-vcMMAE (antibody, V domains shown, antibody conjugated to vcMMAE; chain and residues of attachment not stated) VH: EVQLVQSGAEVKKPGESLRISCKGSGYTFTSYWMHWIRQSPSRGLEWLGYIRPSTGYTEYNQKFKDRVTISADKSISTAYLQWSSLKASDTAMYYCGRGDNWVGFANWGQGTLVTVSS VL: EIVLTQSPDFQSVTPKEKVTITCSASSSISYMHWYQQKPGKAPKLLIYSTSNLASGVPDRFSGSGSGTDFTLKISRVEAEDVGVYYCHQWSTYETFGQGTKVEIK
EC50: 0.0392 mg/L
--
BINDER: BA-105.4-01-05 8317-vcMMAE (antibody, V domains shown, antibody conjugated to vcMMAE; chain and residues of attachment not stated) VH: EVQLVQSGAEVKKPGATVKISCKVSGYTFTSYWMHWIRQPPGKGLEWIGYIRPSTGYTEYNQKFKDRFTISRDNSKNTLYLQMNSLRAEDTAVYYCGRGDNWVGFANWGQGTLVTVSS VL: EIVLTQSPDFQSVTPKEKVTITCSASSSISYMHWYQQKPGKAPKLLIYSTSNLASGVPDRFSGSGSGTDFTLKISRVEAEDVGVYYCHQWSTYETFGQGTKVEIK
EC50: 0.0306 mg/L
